target: Serine/threonine-protein kinase MARK1 (Homo sapiens); conditions: at 0.1 µM
Description: GSK_PKIS: MARK1 mean inhibition at 0.1 uM [Nanosyn]

Molecule | inhibition, %
NC(=O)c1sc(-n2cnc3ccccc32)cc1OCc1ccccc1Br | 2.32
Nc1nccc(-c2c(-c3ccc(F)cc3)nn3cc(C(F)(F)F)ccc23)n1 | -0.24
N#Cc1cccc(Nc2nccc(-c3cnn4ncccc34)n2)c1 | 6.5
COc1cc2ncn(-c3cc(OCc4ccccc4S(C)(=O)=O)c(C#N)s3)c2cc1OC | 36.9
COc1cccc(-n2nc(C)c3c(N/N=C(\C)c4ccncc4)ncnc32)c1 | 0.08
CCCN1CCCC(c2ccc(Nc3nc(Nc4cc(F)ccc4C(N)=O)c4cc[nH]c4n3)c(OC)c2)C1 (configuration not stated) | 11
NS(=O)(=O)c1cccc(Nc2cc(-c3ccc(F)cc3)n[nH]2)c1 | 3.98
CS(=O)(=O)CCNCc1nc(-c2ccc3ncnc(Nc4ccc(OCc5cccc(C(F)(F)F)c5)cc4)c3c2)cs1 | 1
O=C(Nc1ccc(Oc2ccc3[nH]c(NC(=O)c4ccco4)nc3c2)cc1)Nc1cc(C(F)(F)F)ccc1F | -1.16
Nc1nccc(C#Cc2cncnc2Nc2ccc(OCc3cccc(F)c3)c(Cl)c2)n1 | 5.72
Oc1cccc(-c2nc(-c3ccccc3)[nH]c2-c2ccncc2)c1 | 1.58
FC(F)(F)c1ccc(-c2nn3ncccc3c2-c2ccnc(Nc3ccc4c(c3)OCCO4)n2)cc1 | 4.61
COc1cc(Nc2nccc(-c3cnn4ncccc34)n2)cc(OC)c1 | 4.67
Cc1ccc(O)cc1Nc1ccnc2ccc(S(C)(=O)=O)cc12 | 4.73
CC(C)c1ccc(Nc2nccc(-c3cnn4ncccc34)n2)cc1 | 0.51
[O-][S+]1CCN(Cc2ccc(-c3ccc4ncnc(Nc5ccc(OCc6ccccc6)c(Cl)c5)c4c3)o2)CC1 | 1.37
COC(=O)c1cncc(/C=C/c2c(C)cc(O)cc2C)c1 | 2.55
Cc1ccc2c(-c3ccnc(Nc4ccc5c(c4)OCCO5)n3)c(-c3ccc(C(F)(F)F)cc3)nn2n1 | 1.39
Cc1ccc(C(=O)NC2CC2)cc1-c1ccc2[nH]ncc2c1 | 0.44
COc1cccc(-n2ncc3c(N/N=C/c4ccc(S(C)(=O)=O)cc4)ncnc32)c1 | 0.85
C[C@@H](Oc1cc(-n2cnc3ccc(OC[C@@H](O)CO)cc32)sc1C(N)=O)c1ccccc1Cl | 0.87
COC(=O)c1ccc2c(c1)C(=Cc1cc(Br)c(O)c(Br)c1)C(=O)N2 | 1.62
c1ccc(Cc2nc3ccc(Nc4ncnc5ccccc45)cc3[nH]2)cc1 | 1.85
COc1ccc2ncnc(Nc3ccc(OCc4ccccc4)cc3)c2c1 | 1.85
COC(=O)Nc1nc2cc(Oc3ccc(NC(=O)Nc4cccc(Br)c4)cc3)ccc2[nH]1 | 1.41
O=C1Nc2ccccc2/C1=C/Nc1ccc2[nH]c(=O)[nH]c2c1 | 6.25
Cc1nc(-c2ccccc2)n2nc(NCCCN3CCOCC3)ncc12 | 0.92
O=C1Nc2ccc(-c3cccnc3)cc2C1=Cc1cc(Br)c(O)c(Br)c1 | 4.31
Cc1ccc2c(-c3ccnc(Nc4cccc(C(F)(F)F)c4)n3)c(-c3ccccc3)nn2n1 | 1.58
O=S(=O)(CCOCc1ccc(-c2ccc3ncnc(Nc4ccc(OCc5cccc(F)c5)c(Cl)c4)c3c2)o1)c1ccccc1 | -0.2
NS(=O)(=O)c1ccc(NC=C2C(=O)Nc3ccc4ncsc4c32)cc1 | 30.8
C[C@@H](Oc1cc(-n2cnc3ccc(OCC4CCN(C)CC4)cc32)sc1C(N)=O)c1ccccc1C(F)(F)F | 8.37
CN(C)C(=O)O[C@H]1CN[C@H](C#Cc2cc3ncnc(Nc4ccc(OCc5cccc(F)c5)c(Cl)c4)c3s2)C1 | 2.51
Cc1cc(-c2ccccn2)cc(C)c1/C=C/c1cncc(-c2nn[nH]n2)c1 | 1.24
CCS(=O)(=O)c1ccc(OC)c(Nc2ncc(-c3cccc(OC)c3)o2)c1 | 1.2
Cc1ccc2c(c1)/C(=N/Nc1ccc(S(N)(=O)=O)cc1)C(=O)N2 | 0.5
Cc1ccc(NC(=O)CC2CC2)cc1-c1ccc(C(=O)NCC2CC2)cc1 | 2.05
